Test: Effect on arterial blood pressure in conscious dogs
Format: in vivo, Beagle dogs
Details: conscious dog, after 1.5 mg/kg i.v., supine
readoutType: ΔBP Supino (mm Hg)

{"compound": "C=CCOc1ccccc1OCC(O)CNCCOc1ccc(C(N)=O)cc1 (stereo not drawn)", "valueUnit": "mm Hg", "value": -23}
{"compound": "C=CCc1ccccc1OCC(O)CNCCOc1ccc(C(N)=O)cc1 (stereo not drawn)", "valueUnit": "mm Hg", "value": -28}
{"compound": "C=CCc1ccccc1OCC(O)CNC(C)COc1ccc(C(N)=O)cc1 (stereo not drawn)", "valueUnit": "mm Hg", "value": -43}
{"compound": "COCCc1ccc(OCC(O)CNC(C)C)cc1 (stereo not drawn) [Metroprolol, reference compound]", "valueUnit": "mm Hg", "value": -5}
{"compound": "NC(=O)c1ccc(OCCNCC(O)COc2ccccc2Cl)cc1 (stereo not drawn)", "valueUnit": "mm Hg", "value": -28}

---

Molecular target: vascular β-receptors (Felis catus, UniProt Q9TST5)
Construct: from tissue; host or cells: vascular smooth muscle in situ of anesthetized, reserpinized cat (in vivo, isoprenaline vasodilation)
Sequence (Q9TST5 whole entry): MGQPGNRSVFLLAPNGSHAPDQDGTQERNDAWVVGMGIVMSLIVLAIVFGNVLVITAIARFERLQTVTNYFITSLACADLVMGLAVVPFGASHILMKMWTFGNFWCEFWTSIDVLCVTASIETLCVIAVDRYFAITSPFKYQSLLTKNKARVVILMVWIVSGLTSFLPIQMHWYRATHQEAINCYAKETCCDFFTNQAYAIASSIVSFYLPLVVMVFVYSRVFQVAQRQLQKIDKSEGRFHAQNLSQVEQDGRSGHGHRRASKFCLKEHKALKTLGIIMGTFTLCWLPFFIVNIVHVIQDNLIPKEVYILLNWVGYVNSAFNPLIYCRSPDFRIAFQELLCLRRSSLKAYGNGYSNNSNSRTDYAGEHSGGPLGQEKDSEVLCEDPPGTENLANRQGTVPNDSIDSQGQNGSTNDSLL
Test: Block of isoprenaline, PR (vascular), reserpinized anesthetized cat
Type: in vivo
Conditions: iv; reserpinized cat, i.v., PR; read-out: Block of isopren ED50 PR

{"compound": "C=CCc1ccccc1OCC(O)CNCCOc1ccc(C(N)=O)cc1 (stereo not drawn) [Ex 1]", "systemTested": "vascular β-receptors (Felis catus, UniProt Q9TST5)", "valueUnit": "mg/kg", "qual": "=", "ED50": 1.8}
{"compound": "NC(=O)Cc1ccccc1OCC(O)CNCCOc1ccc(C(N)=O)cc1 (stereo not drawn) [Ex 19]", "systemTested": "vascular β-receptors (Felis catus, UniProt Q9TST5)", "valueUnit": "mg/kg", "qual": "<", "ED50": 8.5}
{"compound": "CC(=O)Nc1ccc(OCC(O)CNC(C)C)cc1 (stereo not drawn) [Practolol, reference compound]", "systemTested": "vascular β-receptors (Felis catus, UniProt Q9TST5)", "valueUnit": "mg/kg", "qual": "=", "ED50": 35}
{"compound": "C=CCc1ccccc1OCC(O)CNC(C)COc1ccccc1C (stereo not drawn) [Ex 6]", "systemTested": "vascular β-receptors (Felis catus, UniProt Q9TST5)", "valueUnit": "mg/kg", "qual": "=", "ED50": 0.5}
{"compound": "COC(=O)NCCc1ccc(OCCNCC(O)COc2ccccc2C)cc1 (stereo not drawn) [Ex 9]", "systemTested": "vascular β-receptors (Felis catus, UniProt Q9TST5)", "valueUnit": "mg/kg", "qual": "=", "ED50": 2.4}
{"compound": "NC(=O)c1ccc(OCCNCC(O)COc2ccccc2OCC(=O)NCCO)cc1 (stereo not drawn) [Ex 20]", "systemTested": "vascular β-receptors (Felis catus, UniProt Q9TST5)", "valueUnit": "mg/kg", "qual": "<", "ED50": 8.5}
{"compound": "C=CCOc1ccccc1OCC(O)CNCCOc1ccc(C(N)=O)cc1 (stereo not drawn) [Ex 17]", "systemTested": "vascular β-receptors (Felis catus, UniProt Q9TST5)", "valueUnit": "mg/kg", "qual": "=", "ED50": 1.5}
{"compound": "C#CCOc1ccccc1OCC(O)CNCCOc1ccc(C(N)=O)cc1 (stereo not drawn) [Ex 18]", "systemTested": "vascular β-receptors (Felis catus, UniProt Q9TST5)", "valueUnit": "mg/kg", "qual": "=", "ED50": 0.3}
{"compound": "C=CCc1ccccc1OCC(O)CNC(C)COc1ccc(C(N)=O)cc1 (stereo not drawn) [Ex 5]", "systemTested": "vascular β-receptors (Felis catus, UniProt Q9TST5)", "valueUnit": "mg/kg", "qual": "=", "ED50": 0.2}
{"compound": "COCCc1ccc(OCC(O)CNCCOc2ccc(C(N)=O)cc2)cc1 (stereo not drawn) [Ex 3]", "systemTested": "vascular β-receptors (Felis catus, UniProt Q9TST5)", "valueUnit": "mg/kg", "qual": "=", "ED50": 8.5}
{"compound": "Cc1ccc(Cl)c(OCC(O)CNCCOc2ccc(C(N)=O)cc2)c1 (stereo not drawn) [Ex 2]", "systemTested": "vascular β-receptors (Felis catus, UniProt Q9TST5)", "valueUnit": "mg/kg", "qual": "=", "ED50": 4.6}
{"compound": "NC(=O)c1ccc(OCCNCC(O)COc2ccccc2Cl)cc1 (stereo not drawn) [Ex 11]", "systemTested": "vascular β-receptors (Felis catus, UniProt Q9TST5)", "valueUnit": "mg/kg", "qual": "=", "ED50": 1}
